Sourced from paper PMC7024361

experiment: Material cytotoxicity, CellTiter Glo; format: cell-based; conditions: human, THP-1 macrophage-monocyte derived cells; THP1, 48 h, maximum concentration tested 1000 µg/mL
Observation Type: CC50 at 48 h

Recorded CC50 at 48 h, per entry:
* CCOC(=O)CC(O)(CC(=O)OCC)C(=O)OCC [TEC, triethylcitrate] | > 1000 µg/mL
* O=C(O)C(O)C(O)C(=O)O (stereo not drawn) [Tartaric acid, L(+)-Tartaric acid] | > 1000 µg/mL
* CC(O)C(=O)O (stereo not drawn) [Lactic acid, L(+)-Lactic acid] | > 1000 µg/mL

Field CC50 at 48 h (entry O=C(O)CC(O)(CC(=O)O)C(=O)O [Citric acid, citric acid] ) reads ~1000 µg/mL
